target: T1, A1 domain of vWF (UniProt P04275 1261-1468, limits assumed); experiment: BIAcore initial binding rate, vWF A1 domain on sensor-chip, stored sample
T1 construct: domain: A1 domain; also called vWF A1 domain
Kindly state % activity after 8 wks at 37° C. (initial binding rate against time zero) for each of the entries shown.
# value in %; strip the unit string

Query :: Entry SEQ ID NO: 2 D105S (VHH) VHH: EVQLVESGGGLVQPGGSLRLSCAASGRTFSYNPMGWFRQAPGKGRELVAAISRTGGSTYYPDSVEGRFTISRDNAKRMVYLQMNSLRAEDTAVYYCAAAGVRAESGRVRTLPSEYTFWGQGTQVTVSS : reported % activity after 8 wks at 37° C. (initial binding rate against time zero) = ?
Result :: 94.2

Query :: Ok, now SEQ ID NO: 2 D105T (VHH) VHH: EVQLVESGGGLVQPGGSLRLSCAASGRTFSYNPMGWFRQAPGKGRELVAAISRTGGSTYYPDSVEGRFTISRDNAKRMVYLQMNSLRAEDTAVYYCAAAGVRAETGRVRTLPSEYTFWGQGTQVTVSS
Result :: 96

Query :: Ok, now SEQ ID NO: 2 D62E (VHH) VHH: EVQLVESGGGLVQPGGSLRLSCAASGRTFSYNPMGWFRQAPGKGRELVAAISRTGGSTYYPESVEGRFTISRDNAKRMVYLQMNSLRAEDTAVYYCAAAGVRAEDGRVRTLPSEYTFWGQGTQVTVSS
Result :: 80.2

Query :: Ok, now SEQ ID NO: 2 D105E (VHH) VHH: EVQLVESGGGLVQPGGSLRLSCAASGRTFSYNPMGWFRQAPGKGRELVAAISRTGGSTYYPDSVEGRFTISRDNAKRMVYLQMNSLRAEDTAVYYCAAAGVRAEEGRVRTLPSEYTFWGQGTQVTVSS
Result :: 98.8
